measured target: VEGF (R&D systems, Minneapolis, Minn.) (UniProt P15692-4 27-191, limits assumed)
Sequence (P15692 other isoform, or with tags, fused parts or gaps limits assumed): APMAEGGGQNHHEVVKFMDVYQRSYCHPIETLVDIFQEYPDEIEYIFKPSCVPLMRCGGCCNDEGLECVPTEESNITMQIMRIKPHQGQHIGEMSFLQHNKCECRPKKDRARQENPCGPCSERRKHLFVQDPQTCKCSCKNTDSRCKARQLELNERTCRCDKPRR
protocol notes: BIAcore SPR, mutant/WT
quantity measured: Δkon

Some solved cases for reference:
binder	quantity measured	result
94 (antibody, human IgG1, V domains shown) VH: EVQLVESGGGLVQPGGSLRLSCAASGYTFTFYGMNWVRQAPGKGLEWVGWINTYTGEPTYAADFKRRFTFSLDTSKSTAYLQMNSLRAEDTAVYYCAKYPHYYGGSHWYFDVWGQGTLVTVSS VL: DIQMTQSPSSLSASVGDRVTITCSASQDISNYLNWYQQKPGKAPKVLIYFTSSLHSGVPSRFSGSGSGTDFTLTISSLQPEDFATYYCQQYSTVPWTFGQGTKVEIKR	Δkon	1.4 fold
96 (antibody, human IgG1, V domains shown) VH: EVQLVESGGGLVQPGGSLRLSCAASGYTFTFYGMNWVRQAPGKGLEWVGWINTYTGEPTYAADFKRRFTFSLDTSKSTAYLQMNSLRAEDTAVYYCAKYPPYYGGSHWYFDVWGQGTLVTVSS VL: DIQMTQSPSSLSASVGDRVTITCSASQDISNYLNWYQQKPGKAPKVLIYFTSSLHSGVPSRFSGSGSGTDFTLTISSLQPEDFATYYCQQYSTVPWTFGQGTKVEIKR	Δkon	1.3 fold
84 (antibody, human IgG1, V domains shown) VH: EVQLVESGGGLVQPGGSLRLSCAASGYTFTFYGMNWVRQAPGKGLEWVGWINTYTGEPTYAADFKRRFTFSLDTSKSTAYLQMNSLRAEDTAVYYCAKYPPYEGSSHWYFDVWGQGTLVTVSS VL: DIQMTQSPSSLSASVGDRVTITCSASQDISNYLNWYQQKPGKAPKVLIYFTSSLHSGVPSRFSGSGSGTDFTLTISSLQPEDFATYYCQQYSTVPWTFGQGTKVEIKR	Δkon	8.9 fold
90 (antibody, human IgG1, V domains shown) VH: EVQLVESGGGLVQPGGSLRLSCAASGYTFTFYGMNWVRQAPGKGLEWVGWINTYTGEPTYAADFKRRFTFSLDTSKSTAYLQMNSLRAEDTAVYYCAKYPDYYGSSHWYFDVWGQGTLVTVSS VL: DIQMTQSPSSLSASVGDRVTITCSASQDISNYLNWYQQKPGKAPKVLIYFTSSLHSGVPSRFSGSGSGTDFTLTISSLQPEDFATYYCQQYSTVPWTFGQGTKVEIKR	Δkon	3.6 fold

Attention now shifts to the item below.
-- ask Entry 83 (antibody, human IgG1, V domains shown) VH: EVQLVESGGGLVQPGGSLRLSCAASGYTFTFYGMNWVRQAPGKGLEWVGWINTYTGEPTYAADFKRRFTFSLDTSKSTAYLQMNSLRAEDTAVYYCAKYPPYDGGSHWYFDVWGQGTLVTVSS VL: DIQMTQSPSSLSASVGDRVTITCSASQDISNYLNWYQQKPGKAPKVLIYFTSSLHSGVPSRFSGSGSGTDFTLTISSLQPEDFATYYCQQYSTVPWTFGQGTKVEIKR has what Δkon?
-- reply 10.4 fold
